- test system: Adenosine receptor A1 (Rattus norvegicus, UniProt P25099)
- assay info: Agonistic activity against adenosine A1 receptor
- Assay type: functional
Kindly state IC50 for each of the entries shown.
Give bare numbers, in µM.

molecule	IC50 / µM
COc1cc(-c2oc3c(OC)cc(CCCO)cc3c2C=O)ccc1O	0.017

*Q* Fill in: IC50 of CC(CCC(C)C(C)(C)C)C1CC[C@H]2[C@@H]3C[C@H](OS(=O)(=O)O)C4C[C@H](OS(=O)(=O)O)[C@@H](OS(=O)(=O)O)CC4(C)[C@H]3CCC12C (some centres not stated) is ___
*A* 120

---

- test system: UniProt:P25099
- Sequence (P25099 whole entry): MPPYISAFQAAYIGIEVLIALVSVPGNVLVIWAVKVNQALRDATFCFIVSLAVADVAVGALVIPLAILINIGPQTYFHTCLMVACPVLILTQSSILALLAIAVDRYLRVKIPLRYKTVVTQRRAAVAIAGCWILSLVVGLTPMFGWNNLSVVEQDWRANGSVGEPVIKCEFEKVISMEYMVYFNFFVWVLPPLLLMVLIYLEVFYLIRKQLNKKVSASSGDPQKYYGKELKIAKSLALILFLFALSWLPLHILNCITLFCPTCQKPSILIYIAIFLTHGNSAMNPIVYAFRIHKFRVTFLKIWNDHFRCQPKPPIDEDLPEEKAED
- assay info: Kd value for adenosine A1 receptor binding at 14.5 uM
measured quantity: pKd
Answers are plain numbers, as −log10 of the molar value.

*Q* Fill in: pKd of CC(CCC(C)C(C)(C)C)C1CC[C@H]2[C@@H]3C[C@H](OS(=O)(=O)O)C4C[C@H](OS(=O)(=O)O)[C@@H](OS(=O)(=O)O)CC4(C)[C@H]3CCC12C (stereo partly specified) is ___
*A* 8.86

Attribution: ChEMBL document CHEMBL1152057
